These entries and their values trace back to patent US20250179103A1.

Target: Recombinant STAT6 protein (STAT6(W123-T658)) (Homo sapiens)
Construct: Recombinant STAT6 protein (STAT6(W123-T658))
Sequence (P42226 123-658): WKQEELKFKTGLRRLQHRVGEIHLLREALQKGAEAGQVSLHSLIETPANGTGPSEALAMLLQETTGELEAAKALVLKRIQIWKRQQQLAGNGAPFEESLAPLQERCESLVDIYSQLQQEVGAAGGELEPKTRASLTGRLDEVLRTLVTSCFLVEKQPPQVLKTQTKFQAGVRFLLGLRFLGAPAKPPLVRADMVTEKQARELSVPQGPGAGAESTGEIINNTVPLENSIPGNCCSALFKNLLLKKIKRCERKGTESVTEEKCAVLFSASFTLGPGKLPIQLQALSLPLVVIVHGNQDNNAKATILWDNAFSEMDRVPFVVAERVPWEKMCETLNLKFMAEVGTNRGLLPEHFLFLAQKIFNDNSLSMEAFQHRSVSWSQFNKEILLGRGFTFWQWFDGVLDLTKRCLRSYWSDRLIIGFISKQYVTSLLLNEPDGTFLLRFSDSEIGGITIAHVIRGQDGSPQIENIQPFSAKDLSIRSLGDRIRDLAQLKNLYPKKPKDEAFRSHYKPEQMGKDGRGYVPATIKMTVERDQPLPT
Assay Notes: STAT6 Fluorescence Polarization (FP) Assay
Condition: STAT6(W123-T658) 250 nM, probe 5-FAM-ApYKPFQDLI-NH2 2 nM, 45-minute incubation
Experimental: STAT6 Fluorescence Polarization (FP) Assay An FP assay was developed to determine IC50 values for test substances. […] Reaction components were mixed, and FP was measured after 45-minute incubation at room temperature using a Tecan Spark multimode plate reader. FP signal (mP) was plotted against the log concentration of the test substances and IC50 values were calculated by nonlinear regression analysis using GraphPad Prism software. […]
pIC50: −log10 of the molar value.
Measured Endpoint: pIC50

Take a look at these entries with their results.
CN(C(=O)[C@@H]1CC[C@@H]2CCN(C(=O)Cc3ccccc3)C[C@H](NC(=O)c3cc4cc(C(F)(F)P(=O)(O)O)ccc4[nH]3)C(=O)N21)c1ccccc1 : 5.52 to 6.52
CC(=O)N1CC[C@H]2CC[C@@H](C(=O)N(C)c3ccccc3)N2C(=O)[C@@H](NC(=O)c2cc3cc(C(F)(F)P(=O)(O)O)ccc3[nH]2)C1 : 5.52 to 6.52
CN1CCN(c2ccc(C(=O)N3CC[C@H]4CC[C@@H](C(=O)N5CC(c6cccnc6)C5)N4C(=O)[C@@H](NC(=O)c4cc5cc(C(F)(F)P(=O)(O)O)ccc5s4)C3)c(Cl)c2)CC1 : 4.52 to 5.52
CC(=O)N1CC[C@H]2CC[C@@H](C(=O)N3CC(c4ccn(C)c(=O)c4)CC34CC4)N2C(=O)[C@@H](NC(=O)c2ccc3ccc(CP(=O)(O)O)cc3c2)C1 (some centres unmarked) : 5.52 to 6.52

API: the following record is the query input.
## Input Recorded pIC50 of CC(=O)N1CC[C@H]2CC[C@@H](C(=O)N3Cc4cnn(-c5ccccc5)c4C3)N2C(=O)[C@@H](NC(=O)c2cc3cc(C(F)(F)P(=O)(O)O)ccc3s2)C1 , please.
## Output 5.52 to 6.52

----------
Target: Recombinant STAT3 protein (STAT3(G127-I722)) (Homo sapiens)
Construct: Recombinant STAT3 protein (STAT3(G127-I722))
Sequence (P40763 127-722): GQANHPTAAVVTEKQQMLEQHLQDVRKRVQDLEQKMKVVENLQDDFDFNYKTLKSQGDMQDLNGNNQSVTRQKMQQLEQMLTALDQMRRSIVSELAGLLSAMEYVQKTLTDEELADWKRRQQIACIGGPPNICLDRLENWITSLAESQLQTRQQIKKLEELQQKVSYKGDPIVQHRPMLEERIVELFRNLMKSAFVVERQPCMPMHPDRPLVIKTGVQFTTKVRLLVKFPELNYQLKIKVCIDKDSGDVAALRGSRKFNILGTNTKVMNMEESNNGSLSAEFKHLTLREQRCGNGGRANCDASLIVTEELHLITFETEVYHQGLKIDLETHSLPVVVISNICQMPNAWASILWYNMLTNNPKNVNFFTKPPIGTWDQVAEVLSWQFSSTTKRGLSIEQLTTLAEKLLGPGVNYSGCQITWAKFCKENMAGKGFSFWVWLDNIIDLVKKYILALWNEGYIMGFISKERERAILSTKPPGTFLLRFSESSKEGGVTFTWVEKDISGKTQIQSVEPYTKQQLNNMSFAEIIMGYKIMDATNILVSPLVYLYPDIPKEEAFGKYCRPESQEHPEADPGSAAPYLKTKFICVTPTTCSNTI
Assay Notes: STAT3 Fluorescence Polarization (FP) Assay
Condition: STAT3(G127-I722) 25 nM, probe 5-FAM-GpYLPQTV-NH2 2 nM, 45-minute incubation
Measured Endpoint: IC50

CC(=O)N1CC[C@H](NC(=O)c2cc3cc(C(F)(F)P(=O)(O)O)ccc3s2)C(=O)N2[C@H](CC[C@H]2C(=O)N2CC(c3cccnc3)C2)C1 : ≤ 0.1 µM

## Input Record CC(=O)N1CC[C@H]2CC[C@@H](C(=O)N3CC(c4cc[nH]c(=O)c4)CC34CC4)N2C(=O)[C@@H](NC(=O)c2ccc3ccc(C(F)(F)P(=O)(O)O)cc3c2)C1 (some centres unmarked) : what is its IC50 with Recombinant STAT3 protein (STAT3(G127-I722)) (Homo sapiens)?
## Output > 10 µM

## Input Please provide the recorded IC50 for CCN1CC[C@H]2CC[C@@H](C(=O)N3C[C@@H](C#N)[C@H](c4ccccc4)C3)N2C(=O)[C@@H](NC(=O)c2cc3cc(C(F)(F)P(=O)(O)O)ccc3s2)C1 (single isomer, unassigned) , tested on Recombinant STAT3 protein (STAT3(G127-I722)) (Homo sapiens).
## Output 1 to 10 µM

## Input Give the reported IC50 for CC(=O)N[C@H]1CCC[C@@H]1NC(=O)[C@@H]1CC[C@@H]2CCN(C(C)=O)C[C@H](NC(=O)c3cc4cc(C(F)(F)P(=O)(O)O)ccc4[nH]3)C(=O)N21 (system: Recombinant STAT3 protein (STAT3(G127-I722)) (Homo sapiens)).
## Output 1 to 10 µM

## Input # value lookup — system Recombinant STAT3 protein (STAT3(G127-I722)) (Homo sapiens), readout IC50, item COc1cccc(N(C)C(=O)[C@@H]2CC[C@@H]3CCN(C(C)=O)C[C@H](NC(=O)c4cc5cc(C(F)(F)P(=O)(O)O)ccc5[nH]4)C(=O)N32)c1
## Output 1 to 10 µM

## Input What is its IC50 for Recombinant STAT3 protein (STAT3(G127-I722)) (Homo sapiens)? Entry: CCc1ccc2onc(C(=O)N3CC[C@H]4CC[C@@H](C(=O)N5CCOCC56CC6)N4C(=O)[C@@H](NC(=O)c4ccc5ccc(C(F)P(=O)(O)O)cc5c4)C3)c2c1 (some centres unmarked)
## Output > 10 µM

----------
Measured pIC50 by item
Target: Recombinant STAT3 protein (STAT3(G127-I722)) (Homo sapiens)
Construct: Recombinant STAT3 protein (STAT3(G127-I722))
Assay Notes: STAT3 Fluorescence Polarization (FP) Assay
Format: binding
Condition: STAT3(G127-I722) 25 nM, probe 5-FAM-GpYLPQTV-NH2 2 nM, 45-minute incubation
pIC50: −log10 of the molar value.

CN(C(=O)[C@@H]1CC[C@@H]2CCN(CC(F)F)C[C@H](NC(=O)c3ccc4ccc(C(F)(F)P(=O)(O)O)cc4c3)C(=O)N21)C1CCN(S(C)(=O)=O)CC1 [Compound 244] : 5.00 to 6.00

## Input Quick check: pIC50 of CC(=O)N1CC[C@H]2CC[C@@H](C(=O)N(C)CC(C)C#N)N2C(=O)[C@@H](NC(=O)c2cc3cc(C(F)(F)P(=O)(O)O)ccc3s2)C1 (stereo partly drawn) [Compound 89] ?
## Output 5.00 to 6.00

## Input Quick one: pIC50 for N#C[C@H]1CN(C(=O)[C@@H]2CC[C@@H]3CN(C(=O)OCc4ccccc4)CC[C@H](NC(=O)c4ccc5ccc(C(F)(F)P(=O)(O)O)cc5c4)C(=O)N32)C[C@@H]1c1ccccc1 (relative stereo) [Compound 213] ?
## Output 5.00 to 6.00

----------
Target: Recombinant STAT6 protein (STAT6(W123-T658)) (Homo sapiens)
Construct: Recombinant STAT6 protein (STAT6(W123-T658))
Assay Notes: STAT6 Fluorescence Polarization (FP) Assay
Condition: STAT6(W123-T658) 250 nM, probe 5-FAM-ApYKPFQDLI-NH2 2 nM, 45-minute incubation
A collection of compounds and their measured IC50

CC(=O)N1CC[C@H]2CC[C@@H](C(=O)Nc3ccc(-c4ccccc4)cc3)N2C(=O)[C@@H](NC(=O)c2cc3cc(C(F)P(=O)(O)O)ccc3s2)C1 (stereo partly shown) [Compound 17] : 300 to 3000 nM
CC(=O)N1CC[C@H]2CC[C@@H](C(=O)N3CCCC3Cc3ccc(F)cc3)N2C(=O)[C@@H](NC(=O)c2cc3cc(C(F)(F)P(=O)(O)O)ccc3[nH]2)C1 (stereo partly shown) [Compound 130] : 300 to 3000 nM
CC(=O)N1CC[C@H]2CC[C@@H](C(=O)N3CC(C(=O)N4CCCCC4)C3)N2C(=O)[C@@H](NC(=O)c2cc3cc(C(F)(F)P(=O)(O)O)ccc3[nH]2)C1 [Compound 128] : 300 to 3000 nM
CC(=O)N1CC[C@H]2CC[C@@H](C(=O)Nc3ccc4onc(C)c4c3)N2C(=O)[C@@H](NC(=O)c2cc3cc(C(F)(F)P(=O)(O)O)ccc3s2)C1 [Compound 68] : 300 to 3000 nM
CC(=O)N1CC[C@H]2CC[C@@H](C(=O)N3CCOc4cc(-c5ccccc5)ccc43)N2C(=O)[C@@H](NC(=O)c2cc3cc(C(F)(F)P(=O)(O)O)ccc3s2)C1 [Compound 197] : 300 to 3000 nM
O=C(N[C@H]1CN(C(=O)c2noc3c2CCCC3)CC[C@H]2CC[C@@H](C(=O)N3CCOCC3)N2C1=O)c1ccc2ccc(C(F)P(=O)(O)O)cc2c1 (stereo partly shown) [Compound 358] : 300 to 3000 nM
CC(=O)N1CC[C@H]2CC[C@@H](C(=O)N3C[C@H](c4ccccc4)[C@@H](C#N)C3)N2C(=O)[C@@H](NC(=O)c2cc3cc(C(F)(F)P(=O)(O)O)ccc3s2)C1 [Compound 124] : ≤ 300 nM
COc1ccccc1C1CN(C(=O)[C@@H]2CC[C@@H]3CCN(C(C)=O)C[C@H](NC(=O)c4cc5cc(C(F)(F)P(=O)(O)O)ccc5s4)C(=O)N32)C[C@@H]1C#N (relative stereo) [Compound 144] : ≤ 300 nM

## Input Recall the recorded IC50 for Cc1ccc2onc(C(=O)N3CC[C@H]4CC[C@@H](C(=O)N5CCOC[C@@H]5c5ccccc5)N4C(=O)[C@@H](NC(=O)c4ccc5ccc(C(F)P(=O)(O)O)cc5c4)C3)c2c1 (stereo partly shown) [Compound 370] with Recombinant STAT6 protein (STAT6(W123-T658)) (Homo sapiens) and state it.
## Output ≤ 300 nM

## Input Which IC50 is reported with Recombinant STAT6 protein (STAT6(W123-T658)) (Homo sapiens) for this entry: CC(=O)N1CC[C@H]2CC[C@@H](C(=O)Nc3ccc4c(cnn4C)c3)N2C(=O)[C@@H](NC(=O)c2cc3cc(C(F)(F)P(=O)(O)O)ccc3s2)C1 [Compound 161] ?
## Output 300 to 3000 nM
